Below, each of the sequences is paired with its reported apparent KD of MS2 coat protein value.
Tested on: MS2 coat protein
experiment: apparent KD of MS2 coat protein; higher = weaker reporter binding
experimental-parameters: Eterna round: R107; input ligand: theophylline 20 uM
reported-endpoint: apparent KD of MS2 coat protein

sequence-input	target-desc	reported-endpoint	value
AAUAACAUGAGGAUCACCCAUGUAAAAGAUACCAGAGUGAUGAUCCUCCCUUGGCAGCUUAAACGCUAUUGGAAACAAUAGCGAA [Mat - Same State Theophlline A - Mod of Eli - D3]	MS2 coat protein	apparent KD of MS2 coat protein	163 nM
ACAUGAGGGAUGGAUACCAGCGACAUGAGGAUCACCCAUGUAUGAGGAUCAGCCAUGUUAUGCCCUUGGCAGCCACGAACAUCAG [EDEMULLIN]	MS2 coat protein	apparent KD of MS2 coat protein	45.2 nM
AGGAAACAACAUGAGGAUCACCCAUGUGAUACCAGUAUCAAAAGAUACCCUUGGCAGCACACAUGACAUGAGGAUCACCCAUGUA [AstrosSSTheA#2]	MS2 coat protein	apparent KD of MS2 coat protein	52.4 nM
